Assay: Cannabidiol solubility in neat solvents and mixtures, isooctane solubility curve
Type: physicochemical
Conditions: toluene, organic solvent or mixture; read-out: Solubility at RT
endpoint: solubility

INSERT INTO results (smiles, experimentalresult) VALUES
  ('C=C(C)[C@@H]1CCC(C)=C[C@H]1c1c(O)cc(CCCCC)cc1O', '> 100 mg/mL');

====

Test: Cannabidiol solubility in neat solvents and mixtures, isooctane solubility curve
Assay type: physicochemical
Details: water; read-out: Solubility at RT
Description: Isooctane was selected as the final crystallization solvent due the low solubility and similar properties to heptane, i.e., low viscosity and boiling point relative to other higher hydrocarbons (Table 33). Based on the solubility and desire to maximize yield, an isooctane volume of 4.0 L/kg was selected as an appropriate crystallization concentration. Prior to crystallization, it was desired to fully dissolve the CBD in isooctane and filter the process stream. […]
endpoint: solubility

INSERT INTO measurements (smiles, endpoint, experimentalresult) VALUES
  ('C=C(C)[C@@H]1CCC(C)=C[C@H]1c1c(O)cc(CCCCC)cc1O', 'solubility', '< 130 µg/mL');

====

Assay: Quantitative thermodynamic solubility determination at ambient temperature, evaporated solids analyzed by XRPD
Assay type: physicochemical
Details: organic solvent or mixture, thermodynamic from solid; Cumene, ambient temperature
endpoint: solubility

INSERT INTO results (smiles, experimentalresult) VALUES
  ('C=C(C)[C@@H]1CCC(C)=C[C@H]1c1c(O)cc(CCCCC)cc1O', '> 100 mg/mL');

====

Test: Cannabidiol solubility in neat solvents and mixtures, isooctane solubility curve
Assay type: physicochemical
Conditions: 50/50 water/IPA, aqueous with cosolvent or surfactant or cyclodextrin; read-out: Solubility at RT
endpoint: solubility

INSERT INTO results (compound, experimentalresult) VALUES
  ('C=C(C)[C@@H]1CCC(C)=C[C@H]1c1c(O)cc(CCCCC)cc1O [CBD]', '10 to 20 mg/mL');

====

Assay: Cannabidiol solubility in neat solvents and mixtures, isooctane solubility curve
Type: physicochemical
Details: 1,4-dioxane, organic solvent or mixture; read-out: Solubility at RT
endpoint: solubility

INSERT INTO results (compound, experimentalresult) VALUES
  ('C=C(C)[C@@H]1CCC(C)=C[C@H]1c1c(O)cc(CCCCC)cc1O [CBD]', '> 100 mg/mL');

====

Assay: Cannabidiol solubility in neat solvents and mixtures, isooctane solubility curve
Format: physicochemical
Settings: 1-propanol, organic solvent or mixture; read-out: Solubility at RT
endpoint: solubility

INSERT INTO measurements (smiles, endpoint, experimentalresult) VALUES
  ('C=C(C)[C@@H]1CCC(C)=C[C@H]1c1c(O)cc(CCCCC)cc1O', 'solubility', '> 100 mg/mL');

====

Experiment: Cannabidiol solubility in neat solvents and mixtures, isooctane solubility curve
Assay type: physicochemical
Details: MeTHF saturated with water, organic solvent or mixture; read-out: Solubility at RT
Text: Isooctane was selected as the final crystallization solvent due the low solubility and similar properties to heptane, i.e., low viscosity and boiling point relative to other higher hydrocarbons (Table 33). Based on the solubility and desire to maximize yield, an isooctane volume of 4.0 L/kg was selected as an appropriate crystallization concentration. Prior to crystallization, it was desired to fully dissolve the CBD in isooctane and filter the process stream. […]
endpoint: solubility

INSERT INTO measurements (smiles, experimentalresult) VALUES
  ('C=C(C)[C@@H]1CCC(C)=C[C@H]1c1c(O)cc(CCCCC)cc1O', '> 100 mg/mL');
